# pIC50 per entry
study target: T1, human GLP-1 receptor (human, UniProt P43220 24-463)
T1 construct: whole, on cells; Used as purified plasma membranes of the transfected hamster cell line, not as intact cells; also called hGLP-1
test method notes: SPA, displacement of 125I-GLP-1(7-36)NH2 from hGLP-1R membranes, 2.0% HSA
pIC50: −log10 of the molar value. Numbered stars: 1 amine (or outer) side, 2 acyl side, 3 side chain; on linkers, the order of the positions; unused ones are H or OH. Square brackets hold non-standard residues; d marks the D form. Side chains are listed from the residue outwards. Ends that are not written are not given here. * marks the point of attachment. C18 diacid = O=C(O)CCCCCCCCCCCCCCCCC(=O)*; γGlu = O=C(O)[C@H](CCC(=O)[*:2])N[*:1]; AEEA = NCCOCCOCC(=O)O; Aib = CC(C)(N)C(=O)O

[
  {
    "binder": "H[Aib]EGTFTSDVSSYLEGQAIRK([AEEA-AEEA-γGlu-C18 diacid])FIAHLVQGRG",
    "test value": "≥ 6.00"
  },
  {
    "binder": "HXEGTFTSDVSSYLEGQAAKEFIAHLVQGRG (Aib8; Lys26 N-epsilon-acylated (side chain as in name); GLP-1(7-37) numbering)",
    "test value": "≥ 6.00"
  }
]

Now, please, on to the next binder.
pIC50 lookup needed for HAEGTFTSDVSSYLEK([AEEA-AEEA-γGlu-C18 diacid])QAAREFIAHLVQGRG , thanks.
≥ 6.00
